All figures here come from patent US11702428B2.

assay_procedure: Pharmacokinetics in mice
Type: in vivo, CD-1 Mice
cond: mouse, plasma; Male CD-1 Mice, PO, 10 mg/kg, 0.5% MC
# half-life per entry
# unit: h | format: bare number

# example entries with known answers
CC1(C)COc2c(S(=O)(=O)NC(=O)Nc3c4c(cc5c3CCC5)CCC4)cnn2C1
3.4
O=C(Nc1c2c(cc3c1CCC3)CCC2)NS(=O)(=O)c1cnn2c1OCC1(CC1)C2
1.9

Next item in the queue.
Prompt: // lookup half-life for "CN(C)[C@H]1COc2c(S(=O)(=O)NC(=O)Nc3c4c(cc5c3CCC5)CCC4)cnn2C1"
Response: 1

###

assay_procedure: Pharmacokinetics in mice
Format: in vivo, CD-1 Mice
cond: mouse, plasma; Female CD-1 Mice, IV, 1 mg/kg
endpoint: half-life (h)
# unit: h | format: bare number

COC1CN([C@H]2COc3c(S(=O)(=O)NC(=O)Nc4c5c(cc6c4CCC6)CCC5)cnn3C2)C1
1.6

Next item in the queue.
Prompt: // lookup half-life for "CN[C@H]1COc2c(S(=O)(=O)NC(=O)Nc3c4c(cc5c3CCC5)CCC4)cnn2C1"
Response: 1.6
